Each recorded value in this set is attributed to patent US9321752B2.

biological target: Recombinant three-repeat microtubule-binding domain (3R-MBD) of tau protein (Homo sapiens, UniProt P10636); experiment: Determination of tau aggregation inhibitory activity (thioflavin T fluorescence, heparin-induced); assay type: biochemical; details: 16 h; maximum inhibition at the concentrations used (0.1, 0.3, 1, 3, and 10 μM)
Sequence (P10636 2-758 limits assumed): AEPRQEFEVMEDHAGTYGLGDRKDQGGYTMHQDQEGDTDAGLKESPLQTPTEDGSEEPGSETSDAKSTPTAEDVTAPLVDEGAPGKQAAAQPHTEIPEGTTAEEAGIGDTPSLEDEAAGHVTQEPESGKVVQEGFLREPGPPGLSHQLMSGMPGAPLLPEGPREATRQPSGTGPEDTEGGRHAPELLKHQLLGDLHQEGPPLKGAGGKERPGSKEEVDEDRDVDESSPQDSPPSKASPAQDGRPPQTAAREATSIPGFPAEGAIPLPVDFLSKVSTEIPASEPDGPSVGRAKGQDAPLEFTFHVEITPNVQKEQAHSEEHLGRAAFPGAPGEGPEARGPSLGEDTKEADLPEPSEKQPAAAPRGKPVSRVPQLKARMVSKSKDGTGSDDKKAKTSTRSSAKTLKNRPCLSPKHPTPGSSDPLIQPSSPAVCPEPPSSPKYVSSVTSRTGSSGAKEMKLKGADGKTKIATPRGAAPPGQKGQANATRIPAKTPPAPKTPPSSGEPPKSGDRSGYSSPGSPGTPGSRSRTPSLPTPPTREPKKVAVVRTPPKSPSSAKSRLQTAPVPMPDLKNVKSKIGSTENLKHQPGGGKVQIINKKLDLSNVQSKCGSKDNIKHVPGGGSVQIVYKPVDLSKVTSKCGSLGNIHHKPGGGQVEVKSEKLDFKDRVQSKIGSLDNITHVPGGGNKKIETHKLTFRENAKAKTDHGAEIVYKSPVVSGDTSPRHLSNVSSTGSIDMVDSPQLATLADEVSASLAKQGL
Would you kindly list Emax for each of these compounds?
Numbers only, in %.

COMPOUND	Emax / %
COc1cc(OCCN2CCOCC2)ccc1/C=C/c1cc(/C=C/c2cccn2C)[nH]n1 [Example 21-2]	89
CN1CCN(c2ccc(/C=C/c3cc(/C=C/c4cccn4C)[nH]n3)cc2)CC1 [Example 27-3]	91
COc1cc(OCc2ccccn2)ccc1/C=C/c1cc(/C=C/c2cccn2C)[nH]n1 [Example 22-2]	90
COc1cc(OCc2ccccn2)ccc1/C=C/c1cc(/C=C/c2ccc(C)n2C)[nH]n1 [Example 23-2]	92
Cn1cccc1/C=C/c1cc(/C=C/c2ccc(OCc3ccccn3)cc2)n[nH]1 [Example 20-3]	89
CN1CCCN(c2ccc(/C=C/c3cc(/C=C/c4ccc5ccn(C)c5c4)[nH]n3)cc2)CC1 [Example 43-2]	92
CN1CCCN(c2ccc(/C=C/c3cc(/C=C/c4cccn4C)[nH]n3)cc2)CC1 [Example 28-2]	93

Okay, next one:
State the recorded Emax for this entry: Cc1cc(OCc2ccccn2)ccc1/C=C/c1cc(/C=C/c2cccn2C)[nH]n1 [Example 32-5]
90

###

test: Concentration measurement in brain after oral administration; format: in vivo; settings: ICR mice (male, 7 weeks old), single dose of 5 mg/kg, whole brain, LC/MS/MS
Note to self: values exactly at 5000 ng · hr/g-tissue are satisfied. So AUC0-24 h in brain at or above 5000 ng · hr/g-tissue is satisfied, below is not satisfied.

Example entries begin here.
1. CN1CCN(c2ccc(/C=C/c3cc(/C=C/c4cccn4C)[nH]n3)cc2)CC1 not satisfied
2. Cn1cccc1/C=C/c1cc(/C=C/c2ccc(OCc3ccccn3)cc2)n[nH]1 satisfied
3. Cn1cccc1/C=C/c1cc(/C=C/c2ccc(OCc3ccccn3)cc2F)n[nH]1 not satisfied
4. COc1cc(OCCN2CCOCC2)ccc1/C=C/c1cc(/C=C/c2ccc3ccn(C)c3c2)[nH]n1 satisfied

Decide: AUC0-24 h in brain of `CN1CCN(c2ccc(/C=C/c3cc(/C=C/c4ccc5ccn(C)c5c4)[nH]n3)cc2)CC1` >= 5000 ng · hr/g-tissue?
satisfied
